Give measured log10 ED50 for each item. Keep answers brief.
Tested on: Mus musculus
EXPERIMENT DESCRIPTION: Analgesic activity in fasted male mice in phenylquinone writhing assay 40 min after i.c.v. administration.
Assay type: functional
Non-standard residues stand in square brackets, D forms with d. Residues, ends and D or L forms follow the SMILES beside them. *: point of attachment. X1 = O=C(C(F)(F)C(F)(F)C(F)(F)C(F)(F)C(F)(F)C(F)(F)C(F)(F)F)*; Adamantane1carbonyl = O=C(C12CC3CC(CC(C3)C1)C2)*; Benzoyl(4-Ph) = O=C(c1ccc(-c2ccccc2)cc1)*; Benzoyl(4-tBu) = CC(C)(C)c1ccc(C(=O)*)cc1; Butanoyl(3,3-Me2) = CC(C)(C)CC(=O)*; X3 = O=C1NC2CSC(CCCCC(=O)*)C2N1; Orn = NCCC[C@H](N)C(=O)O; X4 = O=C(CC1CC2CCC1C2)*; Piv = CC(C)(C)C(=O)*; Bz = O=C(c1ccccc1)*
Kindly note that the scale is log10 and the underlying ED50 is in ug mouse-1.

input: Provide log10 ED50 value for the following compound: CC[C@H](C)[C@H](NC(=O)[C@H](Cc1ccc(O)cc1)NC(=O)[C@@H]1CCCN1C(=O)[C@H](CCCCN)NC(=O)CC1CC2CCC1C2)C(=O)N[C@@H](CC(C)C)C(=O)O (stereo partly specified) (X4-KPYIL-OH)
output: 0.43

input: Provide log10 ED50 value for the following compound: CC[C@H](C)[C@H](NC(=O)[C@H](Cc1ccc(O)cc1)NC(=O)[C@@H]1CCCN1C(=O)[C@H](CCCCN)NC(=O)CC(C)(C)C)C(=O)N[C@@H](CC(C)C)C(=O)O ({Butanoyl(3,3-Me2)}-KPYIL-OH)
output: 0.08

input: Provide log10 ED50 value for the following compound: CC[C@H](C)[C@H](NC(=O)[C@H](Cc1ccc(O)cc1)NC(=O)[C@@H]1CCCN1C(=O)[C@H](CCCCN)NC(=O)C(C)(C)C)C(=O)N[C@@H](CC(C)C)C(=O)O (Piv-KPYIL-OH)
output: -0.15

input: Provide log10 ED50 value for the following compound: CC[C@H](C)[C@H](NC(=O)[C@H](Cc1ccc(O)cc1)NC(=O)[C@@H]1CCCN1C(=O)[C@H](CCCCN)NC(=O)CCCCC1SCC2NC(=O)NC21)C(=O)N[C@@H](CC(C)C)C(=O)O (stereo partly specified) (X3-KPYIL-OH)
output: 0.92

input: Provide log10 ED50 value for the following compound: CC[C@H](C)[C@H](NC(=O)[C@H](Cc1ccc(O)cc1)NC(=O)[C@@H]1CCCN1C(=O)[C@H](CCCCN)NC(=O)c1ccccc1)C(=O)N[C@@H](CC(C)C)C(=O)O (Bz-KPYIL-OH)
output: 0.18

input: Provide log10 ED50 value for the following compound: CC[C@H](C)[C@H](NC(=O)[C@H](Cc1ccc(O)cc1)NC(=O)[C@@H]1CCCN1C(=O)[C@H](CCCCN)NC(=O)C(F)(F)C(F)(F)C(F)(F)C(F)(F)C(F)(F)C(F)(F)C(F)(F)F)C(=O)N[C@@H](CC(C)C)C(=O)O (X1-KPYIL-OH)
output: 0.64

input: Provide log10 ED50 value for the following compound: CC[C@H](C)[C@H](NC(=O)[C@H](Cc1ccc(O)cc1)NC(=O)[C@@H]1CCCN1C(=O)[C@H](CCCCN)NC(=O)c1ccc(C(C)(C)C)cc1)C(=O)N[C@@H](CC(C)C)C(=O)O ({Benzoyl(4-tBu)}-KPYIL-OH)
output: -0.49

input: Provide log10 ED50 value for the following compound: CC[C@H](C)[C@H](NC(=O)[C@H](Cc1ccc(O)cc1)NC(=O)[C@@H]1CCCN1C(=O)[C@H](CCCCN)NC(=O)C12CC3CC(CC(C3)C1)C2)C(=O)N[C@@H](CC(C)C)C(=O)O (Adamantane1carbonyl-KPYIL-OH)
output: -0.15

input: Provide log10 ED50 value for the following compound: CC[C@H](C)[C@H](NC(=O)[C@H](Cc1ccc(O)cc1)NC(=O)[C@@H]1CCCN1C(=O)[C@@H](N)CCCN)C(=O)N[C@@H](CC(C)C)C(=O)O (H-[Orn]PYIL-OH)
output: 1.83

input: Provide log10 ED50 value for the following compound: CC[C@H](C)[C@H](NC(=O)[C@H](Cc1ccc(O)cc1)NC(=O)[C@@H]1CCCN1C(=O)[C@H](CCCCN)NC(=O)c1ccc(-c2ccccc2)cc1)C(=O)N[C@@H](CC(C)C)C(=O)O ({Benzoyl(4-Ph)}-KPYIL-OH)
output: 1.70

====

Give measured ED50 for each item. Keep answers brief.
System: Mus musculus
EXPERIMENT DESCRIPTION: Analgesic activity of i.v. administered compound in fasted male mice at 10 min. interval was determined using phenylquinone writhing assay
Format: functional
CONDITION: iv
Non-standard residues stand in square brackets, D forms with d. Residues, ends and D or L forms follow the SMILES beside them. *: point of attachment. X1 = O=C(C(F)(F)C(F)(F)C(F)(F)C(F)(F)C(F)(F)C(F)(F)C(F)(F)F)*; Adamantane1carbonyl = O=C(C12CC3CC(CC(C3)C1)C2)*; Benzoyl(4-Ph) = O=C(c1ccc(-c2ccccc2)cc1)*; Nicotinoyl = O=C(c1cccnc1)*; Orn = NCCC[C@H](N)C(=O)O; Boc = CC(C)(C)OC(=O)*
Respond with the bare value in mg/kg.

input: Provide ED50 value for the following compound: CC[C@H](C)[C@H](NC(=O)[C@H](Cc1ccc(O)cc1)NC(=O)[C@@H]1CCCN1C(=O)[C@H](CCCN)NC(=O)C12CC3CC(CC(C3)C1)C2)C(=O)N[C@@H](CC(C)C)C(=O)O (Adamantane1carbonyl-[Orn]PYIL-OH)
output: 11

input: Provide ED50 value for the following compound: CC[C@H](C)[C@H](NC(=O)[C@H](Cc1ccc(O)cc1)NC(=O)[C@@H]1CCCN1C(=O)[C@H](CCCCN)NC(=O)C(F)(F)C(F)(F)C(F)(F)C(F)(F)C(F)(F)C(F)(F)C(F)(F)F)C(=O)N[C@@H](CC(C)C)C(=O)O (X1-KPYIL-OH)
output: 17

input: Provide ED50 value for the following compound: CC[C@H](C)[C@H](NC(=O)[C@H](Cc1ccc(O)cc1)NC(=O)[C@@H]1CCCN1C(=O)[C@H](CCCCN)NC(=O)C12CC3CC(CC(C3)C1)C2)C(=O)N[C@@H](CC(C)C)C(=O)O (Adamantane1carbonyl-KPYIL-OH)
output: 2.8

input: Provide ED50 value for the following compound: CC[C@H](C)[C@H](NC(=O)[C@H](Cc1ccc(O)cc1)NC(=O)[C@@H]1CCCN1C(=O)[C@H](CCCN)NC(=O)OC(C)(C)C)C(=O)N[C@@H](CC(C)C)C(=O)O (Boc-[Orn]PYIL-OH)
output: 2

input: Provide ED50 value for the following compound: CC[C@H](C)[C@H](NC(=O)[C@H](Cc1ccc(O)cc1)NC(=O)[C@@H]1CCCN1C(=O)[C@H](CCCCN)NC(=O)c1ccc(-c2ccccc2)cc1)C(=O)N[C@@H](CC(C)C)C(=O)O ({Benzoyl(4-Ph)}-KPYIL-OH)
output: 13

input: Provide ED50 value for the following compound: CC[C@H](C)[C@H](NC(=O)[C@H](Cc1ccc(O)cc1)NC(=O)[C@@H]1CCCN1C(=O)[C@H](CCCCN)NC(=O)c1cccnc1)C(=O)N[C@@H](CC(C)C)C(=O)O (Nicotinoyl-KPYIL-OH)
output: 3

====

Test system: Mus musculus
EXPERIMENT DESCRIPTION: Analgesic activity in fasted male mice in phenylquinone writhing assay 40 min after i.c.v. administration.
Type: functional
Non-standard residues stand in square brackets, D forms with d. Residues, ends and D or L forms follow the SMILES beside them. *: point of attachment. Adamantane1carbonyl = O=C(C12CC3CC(CC(C3)C1)C2)*; Nicotinoyl = O=C(c1cccnc1)*; Orn = NCCC[C@H](N)C(=O)O; X2 = O=C(CC1CCC2CCCC21)*; Boc = CC(C)(C)OC(=O)*
Give measured ED50 for each item. Keep answers brief.
Respond with the bare value in ug mouse-1.

input: Provide ED50 value for the following molecule: CC[C@H](C)[C@H](NC(=O)[C@H](Cc1ccc(O)cc1)NC(=O)[C@@H]1CCCN1C(=O)[C@H](CCCCN)NC(=O)OC(C)(C)C)C(=O)N[C@@H](CC(C)C)C(=O)O (Boc-KPYIL-OH)
output: 0.2

input: Provide ED50 value for the following molecule: CC[C@H](C)[C@H](NC(=O)[C@H](Cc1ccc(O)cc1)NC(=O)[C@@H]1CCCN1C(=O)[C@H](CCCCN)NC(=O)CC1CCC2CCCC21)C(=O)N[C@@H](CC(C)C)C(=O)O (stereo not given in full) (X2-KPYIL-OH)
output: 2.5

input: Provide ED50 value for the following molecule: CC[C@H](C)[C@H](NC(=O)[C@H](Cc1ccc(O)cc1)NC(=O)[C@@H]1CCCN1C(=O)[C@H](CCCN)NC(=O)C12CC3CC(CC(C3)C1)C2)C(=O)N[C@@H](CC(C)C)C(=O)O (Adamantane1carbonyl-[Orn]PYIL-OH)
output: 3.6

input: Provide ED50 value for the following molecule: CC[C@H](C)[C@H](NC(=O)[C@H](Cc1ccc(O)cc1)NC(=O)[C@@H]1CCCN1C(=O)[C@H](CCCN)NC(=O)OC(C)(C)C)C(=O)N[C@@H](CC(C)C)C(=O)O (Boc-[Orn]PYIL-OH)
output: 0.69

input: Provide ED50 value for the following molecule: CC[C@H](C)[C@H](NC(=O)[C@H](Cc1ccc(O)cc1)NC(=O)[C@@H]1CCCN1C(=O)[C@H](CCCCN)NC(=O)c1cccnc1)C(=O)N[C@@H](CC(C)C)C(=O)O (Nicotinoyl-KPYIL-OH)
output: 0.3
